- Tested on: Staphylococcus aureus
- measurement-protocol: Antibacterial activity against multidrug-resistant Staphylococcus aureus isolate 2919 by broth microdilution assay
- Assay type: functional
quantity-name: MIC (µg/mL)
Answers are plain numbers, in µg/mL.

Readout MIC for "CO/N=C(\C(=O)N[C@@H]1C(=O)N2C(C(=O)O)=C(COC(N)=O)CS[C@H]12)c1ccco1" , test system Staphylococcus aureus, was 16

Readout MIC for "COc1cccc(OC)c1C(=O)N[C@@H]1C(=O)N2[C@@H]1SC(C)(C)[C@@H]2C(=O)O" , test system Staphylococcus aureus, was 32

Readout MIC for "C[C@@H](O)[C@H]1C(=O)N2C(C(=O)O)=C(S[C@@H]3CN[C@H](C(=O)N(C)C)C3)[C@H](C)[C@H]12" , test system Staphylococcus aureus, was 1

Hi, could you look up MIC for each item in my list?
1. CC1(C)S[C@@H]2[C@H](NC(=O)[C@H](N)c3ccc(O)cc3)C(=O)N2[C@H]1C(=O)O
2. CCCCCCCCCNc1ccc(F)c(C(N)=O)c1F
3. Cc1onc(-c2ccccc2Cl)c1C(=O)N[C@@H]1C(=O)N2[C@@H]1SC(C)(C)[C@@H]2C(=O)O

RESULT:
1. 1020
2. 16
3. 4

----------
- measurement-protocol: Oral bioavailability in Sprague-Dawley rat at 50 mg/kg by UPLC-MS/MS analysis
- Format: ADME, organism-based
- test-context: in vivo
quantity-name: bioavailability (%)
Answers are plain numbers, in %.

The compound identified as "CCCCCCCCCNc1ccc(F)c(C(N)=O)c1F" registered its bioavailability at 13

----------
- measurement-protocol: Selective index, ratio of IC50 for mouse L929 cells to MIC for Staphylococcus aureus ATCC 29213
quantity-name: Selectivity Index

Please review the following examples before continuing.
The molecule identified as "CCCCCC/C=C\CNc1ccc(F)c(C(N)=O)c1F" registered its Selectivity Index at 4

The molecule identified as "CCCCCCCCCOc1ccc(F)c(C(N)=O)c1F" registered its Selectivity Index at 29

The molecule identified as "CCCCCCCCN(C)c1ccc(F)c(C(N)=O)c1F" registered its Selectivity Index at 7

The molecule identified as "CCCCOc1cccc(CNc2ccc(F)c(C(N)=O)c2F)c1" registered its Selectivity Index at 2

The molecule identified as "CCCCCCCCCNc1ccc(F)c(/C(N)=N/O)c1F" registered its Selectivity Index at >2

The molecule identified as "CCCCCCCCCNc1ccc(F)c(-c2nnn[nH]2)c1F" registered its Selectivity Index at >2

Hi, could you look up Selectivity Index for each item in my list?
1. CCCCCCCCCNc1ccc(F)c(C(N)=O)c1F
2. CCCCCCCC(C)Nc1ccc(F)c(C(N)=O)c1F (configuration not stated)

RESULT:
1: >32; 2: >8

Hi, could you look up Selectivity Index for each item in my list?
1. CCCCCCCCNc1ccc(F)c(C(N)=O)c1F
2. NC(=O)c1c(F)ccc(N(Cc2ccc(F)cc2)Cc2ccc(F)cc2)c1F
3. NC(=O)c1c(F)ccc(N(Cc2ccc(Cl)cc2)Cc2ccc(Cl)cc2)c1F

RESULT:
[">2", ">2", ">8"]

The molecule identified as "CCCCCCCCCN(C)c1ccc(F)c(C(=N)N)c1F" registered its Selectivity Index at >2

----------
Kindly state Selectivity Index for each of the entries shown.
- measurement-protocol: Selective index, ratio of IC50 for mouse L929 cells to MIC for Staphylococcus aureus ATCC 29213
Numbers only.

The compound identified as "CCCCCCCCCN(C)c1ccc(F)c(C(N)=O)c1F" registered its Selectivity Index at 19

***
The compound identified as "CCCCCOc1cccc(CNc2ccc(F)c(C(N)=O)c2F)c1" registered its Selectivity Index at 2
